Numbers sourced from patent US20250018048A1.

Tested on: C. albicans ATCC 90028
Experiment: MIC80 broth double-dilution assay
Assay type: cell-based
Settings: YPAD medium, 30° C., 24 h
# MIC80 against C. albicans 90028 per record follows
endpointName: MIC80 against C. albicans 90028

smilesEntry: CC(C)Cc1ccc([C@@H](C)C(=O)NC[C@@](O)(Cn2cncn2)c2ccc(F)cc2F)cc1
systemUnderTest: C. albicans ATCC 90028
observedMeasurement: 0.06 µg/mL

smilesEntry: C[C@H](C(=O)NC[C@@](O)(Cn1cncn1)c1ccc(F)cc1F)c1cccc(C(=O)c2ccccc2)c1
systemUnderTest: C. albicans ATCC 90028
observedMeasurement: >64 µg/mL

smilesEntry: O=C(Cc1ccccc1Nc1c(Cl)cccc1Cl)NC[C@@](O)(Cn1cncn1)c1ccc(F)cc1F
systemUnderTest: C. albicans ATCC 90028
observedMeasurement: >64 µg/mL

smilesEntry: O=C(NC[C@](O)(Cn1cncn1)c1ccc(F)cc1F)c1cc(-c2ccc(F)cc2F)ccc1O
systemUnderTest: C. albicans ATCC 90028
observedMeasurement: 0.12 µg/mL

smilesEntry: COc1ccc2cc([C@@H](C)C(=O)NC[C@](O)(Cn3cncn3)c3ccc(F)cc3F)ccc2c1
systemUnderTest: C. albicans ATCC 90028
observedMeasurement: 0.12 µg/mL

smilesEntry: CC(C)Cc1ccc([C@@H](C)C(=O)NC[C@](O)(Cn2cncn2)c2ccc(F)cc2F)cc1
systemUnderTest: C. albicans ATCC 90028
observedMeasurement: 0.007 µg/mL

smilesEntry: C[C@H](C(=O)NC[C@](O)(Cn1cncn1)c1ccc(F)cc1F)c1ccc(-c2ccccc2)c(F)c1
systemUnderTest: C. albicans ATCC 90028
observedMeasurement: 0.015 µg/mL

smilesEntry: C[C@@H](C(=O)NC[C@@](O)(Cn1cncn1)c1ccc(F)cc1F)c1cccc(C(=O)c2ccccc2)c1
systemUnderTest: C. albicans ATCC 90028
observedMeasurement: >64 µg/mL

smilesEntry: O=C(NC[C@@](O)(Cn1cncn1)c1ccc(F)cc1F)c1cc(-c2ccc(F)cc2F)ccc1O
systemUnderTest: C. albicans ATCC 90028
observedMeasurement: 16 µg/mL

smilesEntry: COc1ccc2cc([C@@H](C)C(=O)NC[C@@](O)(Cn3cncn3)c3ccc(F)cc3F)ccc2c1
systemUnderTest: C. albicans ATCC 90028
observedMeasurement: 1 µg/mL
